These data points were gathered from patent US4420488A.

So I've got a bunch of compounds here, and I need their ED50 values.
Protocol text: Inhibition of the carbachol-induced secretion of saliva (rat), cholinolytic side effects (mod. Brown, Quinton)
Measurement conditions: in vivo, po, i.g.
One number for each entry, in mg/kg.

OC(C#CCN1CCCC1)(c1ccccc1)c1ccccc1 [Butynoline phosphate]
9.8

Here is the next item to consider.
(Q) Supply ED50 value. Item: C[N+]1(CC#CC(O)(c2ccccc2)c2ccccc2)CCCC1
(A) 24

---

Protocol text: Mydriasis, cholinolytic side effects (Pulewka)
Measurement conditions: in vivo, po, i.g.
Measured metric: ED50
Hi, when you answer, please include the unit after the number. Thanks!

C[N+]1(CC#CC(O)(c2ccccc2)c2ccccc2)CCCC1
128 mg/kg

Now examine the next entry.
(Q) Identify the reported ED50 for the following entry. OC(C#CCN1CCCC1)(c1ccccc1)c1ccccc1 [Butynoline phosphate]
(A) 16 mg/kg
